# Assay text: Aqueous solubility
# Format: physicochemical
# Recorded conditions: read-out: S
Measured solubility values are reported for all entries that follow.

Exam item: Please look up its solubility: Cl.Oc1nc2cc3cc(OCCCCc4nnnn4C4CCN(Cc5ccccc5)CC4)ccc3[nH]c-2n1
Marked response: > 5000 µg/mL

Exam item: Please look up its solubility: Cl.O=S(=O)(CCCOc1ccc2[nH]c3nc(O)nc-3cc2c1)N1CCN(CC2CCCCC2)CC1
Marked response: > 20000 µg/mL

Exam item: Please look up its solubility: Cl.O=S(=O)(CCCOc1ccc2[nH]c3nc(O)nc-3cc2c1)N1CCN(c2nc3ccccc3o2)CC1
Marked response: > 20000 µg/mL

Exam item: Please look up its solubility: Cl.Oc1nc2cc3cc(OCCCc4nnnn4C4CCN(CC5CCCCCC5)CC4)ccc3[nH]c-2n1
Marked response: 1000 µg/mL

Exam item: Please look up its solubility: Cl.O=S(=O)(CCCOc1ccc2[nH]c3nc(O)nc-3cc2c1)C1CCNCC1
Marked response: > 10000 µg/mL

Exam item: Please look up its solubility: Cl.Oc1nc2cc3cc(OCCCc4nnnn4C4CCN(Cc5ccc(F)cc5)CC4)ccc3[nH]c-2n1
Marked response: > 10000 µg/mL

Exam item: Please look up its solubility: Cl.O=C(NCCCOc1ccc2[nH]c3nc(O)nc-3cc2c1)N1CCN(Cc2cccs2)CC1
Marked response: > 10000 µg/mL

Exam item: Please look up its solubility: Cl.Oc1nc2cc3cc(OCCCc4nnnn4C4CCN(CC5CCCC5)CC4)ccc3[nH]c-2n1
Marked response: 3000 µg/mL

More entries:
Exam item: Please look up its solubility: Cl.Oc1nc2cc3cc(OCCCc4nnnn4C4CCN(CC5CCCCO5)CC4)ccc3[nH]c-2n1 (stereo not drawn)
Marked response: > 10000 µg/mL

Exam item: Please look up its solubility: CCC(CC)CN1CCC(n2nnnc2CCCOc2ccc3[nH]c4nc(O)nc-4cc3c2)CC1.Cl
Marked response: > 10000 µg/mL

Exam item: Please look up its solubility: O=CN1CCN(S(=O)(=O)CCCOc2ccc3[nH]c4nc(O)nc-4cc3c2)CC1
Marked response: < 1000 µg/mL

Exam item: Please look up its solubility: Cl.O=C(NCCCOc1ccc2[nH]c3nc(O)nc-3cc2c1)N1CCN(Cc2ccccc2)CC1
Marked response: > 20000 µg/mL

Exam item: Please look up its solubility: Cl.Oc1nc2cc3cc(OCCCc4nnnn4C4CCN(Cc5ccccc5)CC4)ccc3[nH]c-2n1
Marked response: > 10000 µg/mL

* * *

# Organism: Homo sapiens
# Assay text: Inhibition of human platelet aggregation induced by ADP after 3 min incubation with platelet rich plasma
# Assay type: functional
# Recorded conditions: 0.05 h
Measured pIC50 values are reported for all entries that follow.
The read-out pIC50 is expressed as -log10 of concentration in moles per litre.

Exam item: Please look up its pIC50: Cl.Cl.O=C(NCCCOc1ccc2[nH]c3nc(O)nc-3cc2c1)N1CCN(Cc2ccc(Cl)cc2)CC1
Marked response: 6.54

Exam item: Please look up its pIC50: CCC(CC)CN1CCC(n2nnnc2CCCCOc2ccc3[nH]c4nc(O)nc-4cc3c2)CC1.Cl
Marked response: 7.92

Exam item: Please look up its pIC50: CCCC(CCC)CN1CCN(C(=O)NCCCOc2ccc3[nH]c4nc(O)nc-4cc3c2)CC1.Cl
Marked response: 6.89

Exam item: Please look up its pIC50: Cl.O=S(=O)(CCCOc1ccc2[nH]c3nc(O)nc-3cc2c1)N1CCN(Cc2ccc(F)cc2)CC1
Marked response: 6.55

Exam item: Please look up its pIC50: Cl.O=S(=O)(CCCOc1ccc2[nH]c3nc(O)nc-3cc2c1)C1CCN(Cc2ccc(F)cc2)CC1
Marked response: 7.70

Exam item: Please look up its pIC50: Cl.O=S(=O)(CCCOc1ccc2[nH]c3nc(O)nc-3cc2c1)N1CCN(CC2CCCCC2)CC1
Marked response: 6.96

Exam item: Please look up its pIC50: Cl.O=S(=O)(CCCOc1ccc2[nH]c3nc(O)nc-3cc2c1)C1CCN(CCc2ccccc2)CC1
Marked response: 6.89

Exam item: Please look up its pIC50: Cl.O=S(=O)(CCCOc1ccc2[nH]c3nc(O)nc-3cc2c1)C1CCN(CC2CCCCC2)CC1
Marked response: 7.52

Now examine the next entry.
Exam item: Please look up its pIC50: CCOC(=O)N1CCC(S(=O)(=O)CCCOc2ccc3[nH]c4nc(O)nc-4cc3c2)CC1
Marked response: 6.19

* * *

# Assay text: t1/2 (min)
# Type: ADME
Experimental endpoint: half-life (h)
Entry rule: numbers only, all in h.

Exam item: Please look up its half-life: Cl.O=S(=O)(CCCOc1ccc2[nH]c3nc(O)nc-3cc2c1)C1CCN(Cc2ccc(F)cc2)CC1
Marked response: 2

* * *

# Assay text: half-life (t1/2 min)
# Format: ADME
Experimental endpoint: half-life (h)
Entry rule: numbers only, all in h.

Exam item: Please look up its half-life: Cl.Oc1nc2cc3cc(OCCCc4nnnn4C4CCN(Cc5ccc(F)cc5)CC4)ccc3[nH]c-2n1
Marked response: 24.6

Exam item: Please look up its half-life: CCC(CC)CN1CCN(C(=O)NCCCOc2ccc3[nH]c4nc(O)nc-4cc3c2)CC1.Cl
Marked response: 2.68

Now examine the next entry.
Exam item: Please look up its half-life: Cl.Oc1nc2cc3cc(OCCCc4nnnn4C4CCN(CC5CCCCC5)CC4)ccc3[nH]c-2n1
Marked response: 5.13

* * *

# Assay text: Aqueous solubility
# Type: physicochemical
# Recorded conditions: read-out: S
Experimental endpoint: solubility

Here's what some known entries look like.
Exam item: Please look up its solubility: Cl.O=S(=O)(CCCOc1ccc2[nH]c3nc(O)nc-3cc2c1)C1CCN(CC2CCCCC2)CC1
Marked response: > 10000 µg/mL

Exam item: Please look up its solubility: CCC(CC)CN1CCN(C(=O)NCCCOc2ccc3[nH]c4nc(O)nc-4cc3c2)CC1.Cl
Marked response: > 20000 µg/mL

Exam item: Please look up its solubility: Cl.Cl.O=S(=O)(CCCOc1ccc2[nH]c3nc(O)nc-3cc2c1)N1CCN(Cc2ccc(Cl)cc2)CC1
Marked response: > 20000 µg/mL

Exam item: Please look up its solubility: CCOC(=O)N1CCC(n2nnnc2CCCCOc2ccc3[nH]c4nc(O)nc-4cc3c2)CC1
Marked response: < 1000 µg/mL

More entries:
Exam item: Please look up its solubility: Cl.O=C(NCCCOc1ccc2[nH]c3nc(O)nc-3cc2c1)N1CCN(c2ccccn2)CC1
Marked response: 500 µg/mL

Exam item: Please look up its solubility: Cl.O=C(NCCCOc1ccc2[nH]c3nc(O)nc-3cc2c1)N1CCC(N2CCCCC2)CC1
Marked response: > 20000 µg/mL

Exam item: Please look up its solubility: Cl.O=S(=O)(CCCOc1ccc2[nH]c3nc(O)nc-3cc2c1)C1CCN(Cc2ccccc2)CC1
Marked response: > 10000 µg/mL

Exam item: Please look up its solubility: Cl.O=S(=O)(CCCCOc1ccc2[nH]c3nc(O)nc-3cc2c1)C1CCNCC1
Marked response: > 10000 µg/mL

Exam item: Please look up its solubility: Cl.O=S(=O)(CCCOc1ccc2[nH]c3nc(O)nc-3cc2c1)N1CCNCC1
Marked response: > 20000 µg/mL

Exam item: Please look up its solubility: Cl.O=S(=O)(CCCOc1ccc2[nH]c3nc(O)nc-3cc2c1)N1CCN(Cc2cccc(C(F)(F)F)c2)CC1
Marked response: 2000 µg/mL

Exam item: Please look up its solubility: CC(C)CN1CCC(n2nnnc2CCCCOc2ccc3[nH]c4nc(O)nc-4cc3c2)CC1.Cl
Marked response: > 10000 µg/mL

Exam item: Please look up its solubility: COc1ccc(CN2CCN(S(=O)(=O)CCCOc3ccc4[nH]c5nc(O)nc-5cc4c3)CC2)cc1.Cl
Marked response: > 20000 µg/mL

* * *

Measured IC50 values are reported for all entries that follow.
# Organism: Homo sapiens
# Assay text: Inhibition of human platelet aggregation induced by ADP after 3 min incubation with platelet rich plasma
# Format: functional
# Recorded conditions: 0.05 h
Entry rule: numbers only, all in nM.

Here's what some known entries look like.
Exam item: Please look up its IC50: Cl.O=S(=O)(CCCOc1ccc2[nH]c3nc(O)nc-3cc2c1)N1CCN(Cc2ccccc2)CC1
Marked response: 130

Exam item: Please look up its IC50: Cl.O=S(=O)(CCCOc1ccc2[nH]c3nc(O)nc-3cc2c1)C1CCN(CCC2CCCCC2)CC1
Marked response: 48

Exam item: Please look up its IC50: Cl.O=S(=O)(CCCOc1ccc2[nH]c3nc(O)nc-3cc2c1)N1CCN(Cc2cccc(C(F)(F)F)c2)CC1
Marked response: 320

Now examine the next entry.
Exam item: Please look up its IC50: O=CN1CCN(S(=O)(=O)CCCOc2ccc3[nH]c4nc(O)nc-4cc3c2)CC1
Marked response: 13000
